Cited source for all entries: the supplement of paper PMC12669032

Parameter growth AUC: see the listing below.
system: Lactobacillus gasseri; test: growth AUC relative to DMSO control (median of replicates) (fraction); higher = more growth (less inhibition), active = hit call of the paper; details: 20 µM; 24 h
# print the numeric value only

molecularString | measuredValue
CC(C)N(C(=O)CCl)c1ccccc1 | 1.17
COc1ccccc1N | 1.02
CCCOC(=O)c1ccccc1C(=O)OCCC | 0.999
CCOP(=S)(OCC)Oc1ccc([N+](=O)[O-])cc1 | 0.98
COP(=S)(OC)Oc1cc(Cl)c(Cl)cc1Cl | 1

Now consider the entry below.
Exam item: // returns reported growth AUC for input NCP(=O)(O)O
Marked response: 1.09
